Source listed as the supplement of paper PMC10567573.

B1: C8orf76 (parent)
chain: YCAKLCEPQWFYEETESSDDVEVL

# Variants of: B1
# test: protein stability index of a GFP-peptide fusion (GPS, HEK-293T) (PSI 1-6); higher = more stable;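 note: lentivirally expressed fusions sorted by FACS into six bins by GFP to DsRed ratio, PSI derived from sequencing read proportions per bin multiplied by bin number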
# conditions: c terminus: a fixed tail appended
measured-quantity: protein stability index
# print the numeric value only

[
  {
    "residue-string": "YCAKLCEPQWFYEETVSSDDVEVL",
    "protein stability index": 1.53
  },
  {
    "residue-string": "YCAKLCEPQWFYEETESSDDCEVL",
    "protein stability index": 2.41
  },
  {
    "residue-string": "YCAKLCEPQWFYEETECSDDVEVL",
    "protein stability index": 1.68
  },
  {
    "residue-string": "YCAKLCEPQQFYEETESSDDVEVL",
    "protein stability index": 4.45
  },
  {
    "residue-string": "YCAKLCEPQWFAEETESSDDVEVL",
    "protein stability index": 2.28
  },
  {
    "residue-string": "YCAKLCEPQWFYEETESSIDVEVL",
    "protein stability index": 1.76
  }
]

Data request: Name the recorded protein stability index for YCAKLPEPQWFYEETESSDDVEVL .
Data returned: 2.86

Data request: Then YCAKLCEPQWFYEETESHDDVEVL ?
Data returned: 2.06

Data request: Then YCAKLCVPQWFYEETESSDDVEVL ?
Data returned: 2.3

Data request: Then YCAKLCEPQWFYEETNSSDDVEVL ?
Data returned: 1.89

Data request: Then YPAKLCEPQWFYEETESSDDVEVL ?
Data returned: 4.2
